Molecular target: BRD4(1) protein (Homo sapiens)
Construct: BRD4(1) protein, 500 nM; inferred from the use of nickel acceptor beads
Assay: TSA assay: thermodynamic stability of BRD4(1)
Type: binding
Conditions: SYPRO Orange, 30° C. to 80° C.
Protocol: Activity test in vitro: the compounds of the present invention were conducted the TSA assay to determine the thermodynamic stability of BRD4(1). […] The […] reaction mix was added to 96-well PCR plates. SYPRO Orange (Sigma) was added as a fluorescence probe at a dilution of 1:1000 and incubated with compounds on ice for 30 min. […] The fluorescence readings were recorded at a 0.5° C. interval, and obtained the ΔTm.
# cutoff 5 °C applies to TSA ΔTm; >= gives y, < gives n

# check: TSA ΔTm of "CCCNS(=O)(=O)c1ccc2c3c(cccc13)C(=O)N2CC" is greater than or equal to 5 °C y

Next up: "CCN1C(=O)c2cccc3c(NS(=O)(=O)c4ccc(C)cc4)ccc1c23" y

Next up: "CCN1C(=O)c2cccc3c(NS(=O)(=O)c4cc(Cl)cc(Cl)c4)ccc1c23" n

Next up: "CCN1C(=O)c2cccc3c(S(=O)(=O)Nc4ccc(Cl)cc4)ccc1c23" n

###

Target: BRD4(1) protein (Homo sapiens, UniProt O60885)
Construct: BRD4(1) protein, 500 nM; inferred from the use of nickel acceptor beads
Experiment: TSA assay: thermodynamic stability of BRD4(1)
Type: binding
Details: SYPRO Orange, 30° C. to 80° C.
reported property: TSA ΔTm (°C)
One number for each entry, in °C.

Some solved cases for reference:
{"molecule": "CCN1C(=O)c2cccc3c(S(=O)(=O)Nc4ccc(C(C)=O)cc4)ccc1c23 [Example 67]", "tested system": "BRD4(1) protein (Homo sapiens, UniProt O60885)", "TSA ΔTm (°C)": 3}
{"molecule": "CCN1C(=O)c2cccc3c(S(=O)(=O)NCC4CCCN4CC)ccc1c23 (centres unmarked) [Example 105]", "tested system": "BRD4(1) protein (Homo sapiens, UniProt O60885)", "TSA ΔTm (°C)": 1.7}
{"molecule": "CCN1C(=O)c2cccc3c(NC(=O)Cc4ccc(Cl)cc4Cl)ccc1c23 [Example 49]", "tested system": "BRD4(1) protein (Homo sapiens, UniProt O60885)", "TSA ΔTm (°C)": 0}
{"molecule": "CCN1C(=O)c2cccc3c(S(=O)(=O)NCCN4CCCC4)ccc1c23 [Example 90]", "tested system": "BRD4(1) protein (Homo sapiens, UniProt O60885)", "TSA ΔTm (°C)": 0.7}

Note: attention shifts to another entry.
Fill in: TSA ΔTm of CCN1C(=O)c2cccc3c(NC(=O)/C=C/c4ccco4)ccc1c23 [Example 55] is ___ 0

###

Target: BRD4(1) protein (Homo sapiens, UniProt O60885)
Construct: BRD4(1) protein, 500 nM; inferred from the use of nickel acceptor beads
Assay: AlphaScreen assay: disruption of the interaction of BRD4(1) and biotinylated acetylated peptide
Conditions: BRD4(1) protein with H4KAc4-biotin peptide, 20° C.
Can you tell me IC50 for the items I'm about to list?

Some solved cases for reference:
{"molecule": "CCN1C(=O)c2cccc3c(S(=O)(=O)NC4CNC4)ccc1c23 [Example 88]", "IC50": "> 20 µM"}
{"molecule": "CCN1C(=O)c2cccc3c(S(=O)(=O)NCCN4CCCC4)ccc1c23 [Example 90]", "IC50": "> 20 µM"}
{"molecule": "CCN1C(=O)c2cccc3c(NC(=O)c4ccc(F)cc4)ccc1c23 [Example 46]", "IC50": "> 20 µM"}
{"molecule": "CCCCNS(=O)(=O)c1ccc2c3c(cccc13)C(=O)N2CC(C)C [Example 116]", "IC50": "> 20 µM"}

Note: attention shifts to another entry.
Fill in: IC50 of CCN1C(=O)c2cccc3c(NS(=O)(=O)Cc4ccc(C(F)(F)F)cc4)ccc1c23 [Example 40] is ___ > 20 µM
